- Test system: bovine tubulin
- PROTOCOL: In vitro tubulin polymerization assay (turbidity at 340 nm)
- Format: biochemical
- CONDITION_LABEL: 10 μM compound, 30 minute data point, vs 1% DMSO control
Use Tubulin Assay: percent inhibition at 10 μM based on 30 minute data to assign classes; range list: category 1 = under 50%, category 2 = from 50% up to 80%, category 3 = 80% and over

Example cases with answers are listed next.
>  <COMPOUND>
Fc1ccc(CNc2ccccc2-c2cnc(Nc3ccc4c(c3)OCCO4)o2)cc1F [Compound 247]

>  <CAT>
category 3

$$$$
>  <COMPOUND>
FC(F)(F)c1ccc(-c2nnc(Nc3ccc4c(c3)OCO4)[nH]2)c(NCc2cccnc2)c1 [Compound 125]

>  <CAT>
category 3

$$$$
>  <COMPOUND>
c1cncc(CNc2ncccc2-c2nnc(Nc3ccc4c(c3)OCO4)o2)c1 [Compound 189]

>  <CAT>
category 3

$$$$
>  <COMPOUND>
FC(F)(F)Oc1cccc(-c2nnc(-c3ccccc3NCc3ccc4c(c3)OCO4)[nH]2)c1 [Compound 141]

>  <CAT>
category 3

$$$$
>  <COMPOUND>
COc1cccc(Nc2nnc(-c3cccnc3NCCCn3ccnc3)[nH]2)c1 [Compound 29]

>  <CAT>
category 1

$$$$

In: Class for COc1cc(CNc2cc(C(F)(F)F)ccc2-c2nnc(Nc3ccc4c(c3)OCO4)[nH]2)cc(OC)c1 [Compound 126] ?
Out: category 3

In: Do the same for CS(=O)(=O)c1ccc(-c2nnc(-c3cccnc3NCCc3cccnc3)[nH]2)cc1 [Compound 99] please
Out: category 1

In: Do the same for c1ccc(-c2nnc(Nc3ccc4c(c3)OCO4)[nH]2)c(NCc2ccncc2)c1 [Compound 111] please
Out: category 2

In: Do the same for COc1cccc(Nc2nnc(-c3cccnc3NCc3ccc4c(c3)OCO4)o2)c1 [Compound 186] please
Out: category 1

In: Do the same for c1cnc(NCc2ccc3c(c2)OCO3)c(-c2nnc(Nc3ccc4c(c3)OCCO4)o2)c1 [Compound 195] please
Out: category 2

In: Do the same for c1ccc(-c2nnc(Nc3ccc4c(c3)OCO4)[nH]2)c(NCc2ccc3[nH]ncc3c2)c1 [Compound 119] please
Out: category 2

In: Do the same for COc1ccc(CNc2ncccc2-c2nnc(Nc3cc(OC)c(OC)c(OC)c3)o2)cc1 [Compound 188] please
Out: category 2
